# System: MOLT-4 cells
# assay.details: MOLT-4 cell viability
# Format: cell-based
# run.parameters: Homo sapiens, MOLT-4, 48 h, read-out: IC50 (MOLT-4 cells)
# IC50 annotations
Give the number; nM is assumed, so skip it.

CC1(C)CCC(c2ccc(Cl)cc2)=C(CN2CCN(c3ccc(C(=O)NS(=O)(=O)c4ccc(N[C@H](CCN5CCOCC5)CSc5ccccc5)c(S(=O)(=O)C(F)(F)F)c4)cc3)CC2)C1 [ABT-263, navitoclax, reference compound]: 202
CN(CCOCCOCCOCC#Cc1cccc2c1CN(C1CCC(=O)NC1=O)C2=O)CC[C@H](CSc1ccccc1)Nc1ccc(S(=O)(=O)NC(=O)c2ccc(N3CCN(CC4=C(c5ccc(Cl)cc5)CCC(C)(C)C4)CC3)cc2)cc1S(=O)(=O)C(F)(F)F (stereo partly shown) [4a]: 4.1

Proceed to the following item.
Consider the compound CN(CCOCCOCCOCC#Cc1cccc2c1C(=O)N(C1CCC(=O)NC1=O)C2=O)CC[C@H](CSc1ccccc1)Nc1ccc(S(=O)(=O)NC(=O)c2ccc(N3CCN(CC4=C(c5ccc(Cl)cc5)CCC(C)(C)C4)CC3)cc2)cc1S(=O)(=O)C(F)(F)F (stereo partly shown) [2b] and give its measured IC50.
5.2

----------
# Test system: MOLT-4 cells
# assay.details: MOLT-4 cell viability
# Assay type: cell-based
# run.parameters: Homo sapiens, MOLT-4, 48 h, read-out: IC50 (MOLT-4 cells)
Item-by-item account of IC50
I'd appreciate it if you included the unit after the number.

CN(CCOCCOCCOCCCc1ccc2c(c1)C(=O)N(C1CCC(=O)NC1=O)C2=O)CC[C@H](CSc1ccccc1)Nc1ccc(S(=O)(=O)NC(=O)c2ccc(N3CCN(CC4=C(c5ccc(Cl)cc5)CCC(C)(C)C4)CC3)cc2)cc1S(=O)(=O)C(F)(F)F (some centres unmarked) [3b]: 4.3 nM

Find the recorded IC50 belonging to CC1(C)CCC(c2ccc(Cl)cc2)=C(CN2CCN(c3ccc(C(=O)NS(=O)(=O)c4ccc(N[C@H](CCN(CCOCCOCCOCCNc5cccc6c5C(=O)N(C5CCC(=O)NC5=O)C6=O)C5CCC5)CSc5ccccc5)c(S(=O)(=O)C(F)(F)F)c4)cc3)CC2)C1 (some centres unmarked) [1e] and report it.
330 nM

----------
# Tested on: MOLT-4 cells
# assay.details: MOLT-4 cell viability
# Format: cell-based
# run.parameters: Homo sapiens, MOLT-4, 48 h, read-out: IC50 (MOLT-4 cells)
property.name: IC50
Note to self: number, then unit, no commentary.

The cases that follow already have their IC50 on record.
CCN(CCOCCOCCOCCNc1cccc2c1C(=O)N(C1CCC(=O)NC1=O)C2=O)CC[C@H](CSc1ccccc1)Nc1ccc(S(=O)(=O)NC(=O)c2ccc(N3CCN(CC4=C(c5ccc(Cl)cc5)CCC(C)(C)C4)CC3)cc2)cc1S(=O)(=O)C(F)(F)F (stereo partly shown) [1b]: 52.8 nM
CC1(C)CCC(c2ccc(Cl)cc2)=C(CN2CCN(c3ccc(C(=O)NS(=O)(=O)c4ccc(N[C@H](CCN(CCOCCOCCOCCNc5cccc6c5C(=O)N(C5CCC(=O)NC5=O)C6=O)C5CC5)CSc5ccccc5)c(S(=O)(=O)C(F)(F)F)c4)cc3)CC2)C1 (stereo partly shown) [1d]: 297 nM
CN(CCOCCOCCOCC#Cc1ccc2c(c1)C(=O)N(C1CCC(=O)NC1=O)C2=O)CC[C@H](CSc1ccccc1)Nc1ccc(S(=O)(=O)NC(=O)c2ccc(N3CCN(CC4=C(c5ccc(Cl)cc5)CCC(C)(C)C4)CC3)cc2)cc1S(=O)(=O)C(F)(F)F (stereo partly shown) [3a]: 14.3 nM

Here's the next entry for you.
I would be grateful if you could share the reported IC50 for CC1(C)CCC(c2ccc(Cl)cc2)=C(CN2CCN(c3ccc(C(=O)NS(=O)(=O)c4ccc(N[C@H](CCN(CCOCCOCCOCCNc5cccc6c5C(=O)N(C5CCC(=O)NC5=O)C6=O)CC5CCC5)CSc5ccccc5)c(S(=O)(=O)C(F)(F)F)c4)cc3)CC2)C1 (stereo partly shown) [1g] .
326 nM

Data provenance: paper PMC12155403
